# study-system: Protein arginine N-methyltransferase 1 (Homo sapiens)
# method-summary: human PRMT1 activity-probe blockers – biochemical, fluorescence polarization, primary screen (AID 652257)
# experimental-context: recombinant PRMT1, activity-based probe fluorescence polarization; at 2.79 µM; active compounds read high
In all, about 370,000 compounds went through this assay and about 4,800 (1.3%) were called active. The sample holds actives, similar compounds and a random draw of the others, so the mix is not that of the screen.
reported-metric: inhibition (%)
Give just the numeric value; % need not be written.

Here are 5 compounds together with their reported answers.
[[record]]
compound = "CN(C)c1ccc(Nc2c3c4c(cccc4n(C)c2=O)C(=O)c2ccccc2-3)cc1"
reported_metric = "inhibition"
val = 56.4

[[record]]
compound = "CCOc1ccc2[nH]c(=O)c(CN(Cc3nnnn3CCc3ccccc3)CC3CCCO3)cc2c1 (stereo not given)"
reported_metric = "inhibition"
val = -1.4

[[record]]
compound = "CCOc1ccc(CN(Cc2ccco2)C(c2cccs2)c2nnnn2C(C)(C)C)cc1 (stereo not given)"
reported_metric = "inhibition"
val = 2.59

[[record]]
compound = "CCC(=O)N(Cc1cc2ccccc2[nH]c1=O)c1ccc(OC)cc1"
reported_metric = "inhibition"
val = 1.11

[[record]]
compound = "CCC(c1nnnn1Cc1ccco1)N(CCc1ccccc1)Cc1cc2ccc(OC)cc2[nH]c1=O (stereo not given)"
reported_metric = "inhibition"
val = 44.2


Reported inhibition ( COc1ccc2[nH]c(=O)c(CN(CC3CCCO3)C(=O)Nc3ccccc3)cc2c1 (stereo not given) ) = -3.84

Reported inhibition ( CC(C)c1ccc(C2C(C#N)=C(N)Oc3c2oc(CO)cc3=O)cc1 (stereo not given) ) = 2.64

Reported inhibition ( `CC1CCN(c2ccc(C(=O)O)cc2NS(=O)(=O)c2ccc(Br)s2)CC1` ) = -1.42

Reported inhibition ( CCC(c1nnnn1Cc1ccco1)N(Cc1cc2cc(OC)ccc2[nH]c1=O)C1CCCCC1 (stereo not given) ) = 35.9

Reported inhibition ( COc1cc(C2C(C#N)=C(C)NC3=C2C(=O)CC(C)(C)C3)ccc1O (stereo not given) ) = -0.43
